property.label: melting point

Observe how each entry below is paired with its result.
[
  {
    "molecule": "Oc1ccc(-c2nc(-c3cccs3)c[nH]2)cc1Cl",
    "property.label": "melting point",
    "observed": "152 to 153 °C"
  },
  {
    "molecule": "OC1CSC(Oc2cccnc2-c2cccnc2)C(O)C1O (stereo unspecified)",
    "property.label": "melting point",
    "observed": "80 °C"
  }
]

Now turn to the next molecule.
Requested read-out: melting point. Entry: CC(C)CC1(CC(=O)NO)C(=O)N(CCc2ccccc2)C(=O)N1C (stereo unspecified)
127 to 129 °C

----------
property.label: melting point (°C)

[
  {
    "compound": "Cc1cnc2c(c1)CCCC2C(N)=S (stereo unspecified)",
    "observed": 149
  },
  {
    "compound": "CC(=O)OC1CSC(Oc2cnccc2-c2ccc(C(F)(F)F)cc2)C(OC(C)=O)C1OC(C)=O (stereo unspecified)",
    "observed": 168
  },
  {
    "compound": "N#C/C=C/c1ccc(Cl)cc1Cl",
    "observed": 156
  }
]

[P] CCN(CC)c1cc(=S)ss1
[Q] O=c1[nH]c2cccnc2n1-c1cc(F)ccc1F
When their melting point values are compared, which is larger, P or Q ? Your choice should be expressed through its label.
Q

----------
Documented melting point across a set of compounds

Some compounds with known melting point results, for comparison:
[
  {
    "compound": "Oc1cccc(F)c1OC(COCc1ccccc1)C(Cl)COCc1ccccc1 (stereo not given)",
    "observed": "77 to 79 °C"
  },
  {
    "compound": "CCC1(CCCCN2CCN(c3ccc(OC)cc3)CC2)C(=O)Nc2ccccc21 (stereo not given)",
    "observed": "109 to 110 °C"
  },
  {
    "compound": "CC(=O)CN1CCNC1=Nc1c(Cl)cccc1Cl",
    "observed": "84 to 86 °C"
  },
  {
    "compound": "OCc1nccn1CCCc1ccc(OCc2coc(/C=C/c3ccccc3)n2)cc1",
    "observed": "143 to 144 °C"
  }
]

Next compound, melting point to be filled in.
Need melting point, item "Cc1n[nH]c(C)c1Oc1cc(Cl)cc(C#N)c1"
136 to 140 °C

----------
property.label: melting point (°C)

[
  {
    "smiles": "O=C1[C@@H]2CCCN2C(=O)N1c1cc(Cl)cc(Cl)c1",
    "melting point (°C)": 169
  },
  {
    "smiles": "CCCCOc1ccc(S(=O)(=O)C2(C(=O)O)CCN(Cc3ccc(C)cc3)CC2)cc1",
    "melting point (°C)": 137
  },
  {
    "smiles": "Cc1cn2c(=O)c(CCN3CCC(C(=O)c4ccc(F)cc4)CC3)cnc2n1Cc1ccccc1",
    "melting point (°C)": 157
  },
  {
    "smiles": "CCOC(=O)N1CCC(Nc2nc3cncnc3n2C2CC2)CC1",
    "melting point (°C)": 177
  }
]

----------
property.label: melting point

Worked examples, 5 compounds total:
[
  {
    "compound": "C=C1SC(=O)N(c2ccc3cc(-c4ccc(O)c(C(C)(C)C)c4)ccc3c2)C1=O",
    "observed": "276 to 278 °C"
  },
  {
    "compound": "O=c1[nH]c2cc(Cl)ccc2c(O)c1-c1cccc(/C=C/c2ccccc2)c1",
    "observed": "320 to 324 °C"
  },
  {
    "compound": "OCCCCCc1ccc(OCc2coc(/C=C/c3ccccc3)n2)cc1",
    "observed": "93 to 94 °C"
  },
  {
    "compound": "CSCC[C@H](NC(=O)C1(CS)Cc2ccccc2C1)C(=O)O",
    "observed": "68 to 69 °C"
  },
  {
    "compound": "COc1ccc2[nH]ncc2c1C",
    "observed": "148 to 149 °C"
  }
]

Quick check: melting point of CC(C)C(=O)NC1CCc2c(c3cc(Br)ccc3n2Cc2cccc(F)c2)C1 (stereo unspecified) ?
177 to 179 °C

"CC(=O)c1ccc(-c2cnc3c(c2)N(Cc2ccccc2)C(=O)CN3)cc1" ?
200 °C

Do the same for "COc1ccc(CCCCNC(=O)CCl)cc1" please
99 to 100 °C

Same for COCC1OC(OC(C)=O)C(OC(C)=O)C(OC(C)=O)C1OC(C)=O (stereo unspecified)
102 to 103 °C

CC(=O)Oc1cc(C)cc2c1C1=C(CCC(C)C1)C(C)(C)O2 (stereo unspecified) , same question.
115 to 119 °C

Continue with "COC(=O)c1ccc(OCCCOc2ccccc2)cc1O"
90 to 92 °C

----------
melting point for assorted compounds

Known results for compounds:
[
  {
    "compound": "Cc1nn(-c2cncc(F)c2)cc1I",
    "melting point": "87 to 88 °C"
  },
  {
    "compound": "O=c1[nH]c(=Cc2ccc(OCc3ccncc3)cn2)c(=O)[nH]c1=Cc1ccccc1",
    "melting point": "254 to 255 °C"
  },
  {
    "compound": "CON=C(C(C)=C(ON)c1ccccc1C(=NOC)C(=O)OC)c1ccc(F)cc1F",
    "melting point": "110 to 119 °C"
  },
  {
    "compound": "CCCc1c(OCC(O)CSc2nnc(SCC(=O)O)s2)ccc(C(C)=O)c1O (configuration not stated)",
    "melting point": "72 to 75 °C"
  },
  {
    "compound": "CCN(CC)Cc1nc2sc3c(c2c(-c2ccc(OC)c(OC)c2)c1Cl)CCN(Cc1ccccc1)C3",
    "melting point": "150 to 151 °C"
  }
]

Form field: reported melting point of O=C1N[C@H](Cc2ccc(C(F)(F)F)o2)[C@H](c2ccc(F)cc2)O1 (racemic)
177 to 179 °C

Also need "CCN(c1ccc(Cl)cc1C(N)=O)S(=O)(=O)c1ccc(C)cc1" , thanks.
148 to 150 °C

----------
property.label: melting point

Worked cases, answers included:
[
  {
    "smiles": "Cc1cc(I)ccc1Nc1c(-c2nnn[nH]2)ccc(F)c1F",
    "melting point": "83.4 to 88.7 °C"
  },
  {
    "smiles": "O[C@H]1CC[C@H](Nc2nccc(-n3nnc4ccccc43)n2)CC1",
    "melting point": "225 to 228 °C"
  },
  {
    "smiles": "COc1nc(O)cc(=O)n1C",
    "melting point": "170 to 171 °C"
  }
]

Returns the measured melting point for the input compound. Input: "CCCCCC(=O)CCCC(=O)O"
54 to 55 °C

----------
property.label: melting point

[
  {
    "molecule": "COc1cc(-c2ccccc2)nc(-c2ccc(C)cc2)n1",
    "observed": "99 to 100 °C"
  },
  {
    "molecule": "Cc1cc(C(C)(C)C)c(O)c(P(=O)(c2ccccc2)C2c3ccccc3-c3ccccc32)c1 (stereo unspecified)",
    "observed": "237 to 240 °C"
  },
  {
    "molecule": "COc1cc(Cc2cnc(N)nc2N)cc(OC)c1-n1cccc1",
    "observed": "220 °C"
  },
  {
    "molecule": "CC(=O)Nc1cccc2c1C(=O)c1c-2n[nH]c1-c1ccccc1",
    "observed": "> 300 °C"
  },
  {
    "molecule": "N=C(Nc1ccc(CCNCc2ccccc2)cc1)c1cccs1",
    "observed": "116 to 118 °C"
  }
]

Let us move to another entry and its melting point.
Recorded melting point for "CCNc1nc(NCCN2CCCC2)nc(Nc2ccc(OC)cc2)n1" , please?
29 to 31 °C

----------
We begin with a simple list: items and their reported melting point.

[
  {
    "compound": "CCOC(=O)c1cn(-c2ccccn2)c2occc2c1=O",
    "melting point": "199 to 200 °C"
  }
]

Which value of melting point has been reported for "CCOc1cc(C(Cl)(Cl)Cl)cc(OC)n1" in the records?
36 to 38 °C

Another: O=S1NC(CC2=Cc3ccccc3CC2)=NO1 (centres undefined)
118 to 120 °C

Further, for "N#Cc1c(Cl)cccc1CBr" ?
83 °C

----------
property.label: melting point

[
  {
    "compound": "COC(=N)c1ccc(-c2cc3ncn([C@H](C)[C@](O)(Cn4cncn4)c4ccc(F)cc4F)c(=O)c3s2)cc1",
    "observed": "194 to 201 °C"
  },
  {
    "compound": "O=C(NCCCc1ccncc1)N(CCCC(F)(F)F)CCC12CC3CC(CC(C3)C1)C2",
    "observed": "143 to 145 °C"
  }
]

# context switch: different compound, same melting point
Give the measured melting point of CC1CCN(c2scc(C(C)(C)C)c2C#N)C1=O (stereo not drawn) .
92 to 94 °C
